- PROTOCOL_DETAILS: chemical genetic growth profiling, strain panel (AID 1159580);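 further: tested at 20 µM; growth read once vehicle control cultures reached saturation at 30 °C; lower values mean less growth of the strain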
- REPORTED_CONDITIONS: S. cerevisiae deletion strains, growth OD, locus YDR392W, strain spt3
The whole screen tested about 5,500 compounds, of which about 2,000 (36%) were called active. Another 18% or so got no clear call; they are omitted. No stated cut-off is given here; in the data, active means normalized growth mostly below about 0.91 (no sharp cut-off); inconclusive means no clear call, values can overlap the other calls; inactive means mostly above about 0.92. The list shows a part of the results.
Classes to choose from: active, inactive

Sample answers from the record:
{"columns": ["MOLECULE", "ASSIGNED_CLASS"],
 "data": [
  ["NCC1CCCCC1CC(=O)O (stereo not given)", "inactive"],
  ["CC(C)[N+](C)(CCOC(=O)C1c2ccccc2Oc2ccccc21)C(C)C", "inactive"],
  ["CCC1(c2ccc(N)cc2)CCC(=O)NC1=O (stereo not given)", "inactive"],
  ["C/C=C(/C(=C/C)c1ccc(O)cc1)c1ccc(O)cc1", "inactive"],
  ["CC[C@@H](CO)NCCN[C@@H](CC)CO", "inactive"],
  ["N=c1nc(N2CCCCC2)cc(N)n1O", "inactive"],
  ["CC(C(=O)O)c1ccc2c(c1)[nH]c1ccc(Cl)cc12 (stereo not given)", "inactive"],
  ["COc1ccc2c(c1)[C@@]1(C)CCC(=O)C[C@H]1CC2", "inactive"],
  ["COc1ccc(C[C@H]2NC[C@H](O)[C@H]2OC(C)=O)cc1", "active"],
  ["O=C1C[C@@H](c2ccc(O)cc2)Oc2cc(O)cc(O)c21", "inactive"]
]}

Hi team, can someone confirm the assay call for "C=CCc1ccc2c(c1)OCO2" ?
inactive

Follow-up entry: CO[C@H]1C[C@H](O[C@H]2[C@H](C)[C@@H](OC3O[C@H](C)C[C@H](N(C)C)[C@H]3O)[C@@H](C)C[C@]3(CO3)C(=O)[C@H](C)[C@@H](O)[C@@H](C)[C@@H](C)OC(=O)[C@@H]2C)O[C@@H](C)[C@@H]1O (stereo not given in full)
inactive

Further, for "CCCCCCCCCCCCCCCCOP(=O)([O-])OCC[N+](C)(C)C" ?
active

Hello, the source for this data is PubChem BioAssay AID1159580, in case you need it.
